Substrate: gfPET
Assay: Proxy for plastic degradation [Relative activity]
Conditions: pH 8
The following proteins are shown together with reported Proxy for plastic degradation values.
Measured endpoint: Proxy for plastic degradation (%)

- unnamed (protein) MANPYERGPDPTESSIEAVRGPFAVAQTTVSRLQADGFGGGTIYYPTDTSQGTFGAVAISPGFTAGQESIAWLGPRIASQGFVVITIDTITRLDQPDSRGRQLQAALDHLRTNSVVRNRIDPNRMAVMGHSMGGGGALSAAANNTSLEAAIPLQGWHTRKNWSSVRTPTLVVGAQLDTIAPVSSHSEAFYNSLPSDLDKAYMELRGASHQVSNTPDTTTAKYSIAWLKRFVDDDLRYEQFLCPAPDDFAISEYRSTCPF: 94
- unnamed (protein) MANPYERGPDPTESSIEAVRGPFAVAQTTVSRLQADGFGGGTIYYPTDTSQGTFGAVAISPGFTAGQESIAWLGPRIASQGFVVITIDTITRLDQPDSRGRQLQAALDHLRTNSVVRNRIDPNRMAVMGHSMGGGGALSAAANNTSLEAAIPLQGWHTRKNWSSVRTPTLVVGAQLDTIAPVSSHSEAFYNSLPSDLDKAYMELRGASHKVSNTPDTTTAKYSIAWLKRFVDDDLRYEQFLCPAPDDFAISEYRSTCPF: 48
- unnamed (protein) MANPYERGPDPTESSIEAVRGPFAVAQTTVSRLQADGFGGGTIYYPTDTSQGTFGAVAISPGFTAGQESIAWLGPRIASQGFVVITIDTITRLDQPDSRGRQLQAALDHLRTNSVVRNRIDPNRMAVMGHSMGGGGALSAAANNTSLEAAIPLQGFHTRKNWSSVRTPTLVVGAQLDTIAPVSSHSEAFYNSLPSDLDKAYMELRGASHLVSNTPDTTTAKYSIAWLKRFVDDDLRYEQFLCPAPDDFAISEYRSTCPF: 8
- unnamed (protein) MANPYERGPDPTESSIEAVRGPFAVAQTTVSRLQADGFGGGTIYYPTDTSQGTFGAVAISPGFTAGQESIAWLGPRIASQGFVVITIDTITRLDQPDSRGRQLQAALDHLRTNSVVRNRIDPNRMAVMGHSMGGGGALSAAANNTSLEAAIPLQGWHTRKNWSSVRTPTLVVGAQLDTIAPVSSHSEAFYNSLPSDLDKAYMELRGASHSVSNTPDTTTAKYSIAWLKRFVDDDLRYEQFLCPAPDDFAISEYRSTCPF: 94
- unnamed (protein) MANPYERGPDPTESSIEAVRGPFAVAQTTVSRLQADGFGGGTIYYPTDTSQGTFGAVAISPGFTAGQESIAWLGPRIASQGFVVITIDTITRFDYPDSRGRQLQAALDHLRTNSVVRNRIDPNRMAVMGHSMGGGGALSAAANNTSLEAAIPLQGWHTRKNWSSVRTPTLVVGAQLDTIAPVSSHSEAFYNSLPSDLDKAYMELCGASHLVSNTPDTTTAKYSIAWLKRFVDDDLRYEQFLCPAPDDFAICEYRSTCPF: 70

The measured values listed here are drawn from the PETadex activity labels (doi:10.1021/acscatal.2c02275).
